# log(1/C) listing for each entry below
- Species: Rattus norvegicus
- protocol-notes: Toxicity in rat assessed as concentration required for producing T/C of 140
- Type: organism-based
- experimental-setup: in vivo
recorded-endpoint: log(1/C)

Cc1ccc(/N=N/N(C)C)cc1: 2.62
CN(C)/N=N/c1ccc(Cl)cc1: 2.71
CN(C)/N=N/c1ccccc1: 2.54
CN(C)/N=N/c1ccc([N+](=O)[O-])cc1: 2.06
CN(C)/N=N/c1ccc(Br)cc1: 2.73
CN(C)/N=N/c1ccc(F)cc1: 2.71
CN(C)/N=N/c1ccc(I)cc1: 2.68
COc1ccc(/N=N/N(C)C)cc1: 2.72
